Test system: panel of cancer cell lines
Experiment: Cell viability (CellTiter-Glo) dose-response across cancer cell line panel;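 note: after 72 h compound incubation with CellTiter-Glo ATP readout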
Type: cell-based, human
Conditions: Homo sapiens, MFE-296, MFE-296
pEC50: −log10 of the molar value.
measurement_name: pEC50

NS(=O)(=O)OC[C@@H]1C[C@@H](n2ccc3c(N[C@H]4CCc5ccccc54)ncnc32)C[C@@H]1O [MLN4924]: 6.96
COCc1ccccc1NCc1ccc([C@H]2[C@@H](O)CCCc3cncn32)c(-c2ccccc2Cl)c1 [CSN5i-2]: 6.29

----------
Test system: panel of cancer cell lines
Test: Cell viability (CellTiter-Glo) dose-response across cancer cell line panel;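 note: after 72 h compound incubation with CellTiter-Glo ATP readout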
Assay type: cell-based, human
Conditions: Homo sapiens, NCI-H520, cell line NCI-H520
measurement_name: EC50 (nM)

CC(C)C[C@H](NC(=O)[C@H](Cc1ccccc1)NC(=O)c1cnccn1)B(O)O: 7.91

----------
System: panel of cancer cell lines
Assay: Cell viability (CellTiter-Glo) dose-response across cancer cell line panel;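 note: after 72 h compound incubation with CellTiter-Glo ATP readout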
Format: cell-based, human
Conditions: Homo sapiens, PL-21, PL-21 cells
measurement_name: EC50 (µM)

COCc1ccccc1NCc1ccc([C@@H]2[C@H](O)CCCc3cncn32)c(-c2ccccc2Cl)c1: 6.39

----------
Test system: panel of cancer cell lines
Assay: Cell viability (CellTiter-Glo) dose-response across cancer cell line panel;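 note: after 72 h compound incubation with CellTiter-Glo ATP readout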
Assay type: cell-based, human
Settings: Homo sapiens, SYO-1 cells
measurement_name: EC50

COCc1ccccc1NCc1ccc([C@@H]2[C@H](O)CCCc3cncn32)c(-c2ccccc2Cl)c1 [CSN5i-2e]: 11.2 µM

----------
Tested on: panel of cancer cell lines
Experiment: Cell viability (CellTiter-Glo) dose-response across cancer cell line panel;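 note: after 72 h compound incubation with CellTiter-Glo ATP readout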
Type: cell-based, human
Conditions: Homo sapiens, Maver1, cell line MAVER-1
measurement_name: EC50 (nM)

CC(C)C[C@H](NC(=O)[C@H](Cc1ccccc1)NC(=O)c1cnccn1)B(O)O [Bortezomib]: 6.73

----------
Test system: panel of cancer cell lines
Assay: Cell viability (CellTiter-Glo) dose-response across cancer cell line panel;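 note: after 72 h compound incubation with CellTiter-Glo ATP readout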
Assay type: cell-based, human
Conditions: Homo sapiens, SNU-423, SNU-423
Let's look at some molecules and their measured EC50.
measurement_name: EC50

NS(=O)(=O)OC[C@@H]1C[C@@H](n2ccc3c(N[C@H]4CCc5ccccc54)ncnc32)C[C@@H]1O: 620 nM
COCc1ccccc1NCc1ccc([C@H]2[C@@H](O)CCCc3cncn32)c(-c2ccccc2Cl)c1: 1310 nM

----------
System: panel of cancer cell lines
Assay: Cell viability (CellTiter-Glo) dose-response across cancer cell line panel;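 note: after 72 h compound incubation with CellTiter-Glo ATP readout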
Assay type: cell-based, human
Details: Homo sapiens, cell line Mel285
pEC50: −log10 of the molar value.
measurement_name: pEC50

CC(C)C[C@H](NC(=O)[C@H](Cc1ccccc1)NC(=O)c1cnccn1)B(O)O: 8.09

----------
System: panel of cancer cell lines
Assay: Cell viability (CellTiter-Glo) dose-response across cancer cell line panel;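 note: after 72 h compound incubation with CellTiter-Glo ATP readout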
Assay type: cell-based, human
Conditions: Homo sapiens, SNU-761
measurement_name: EC50 (nM)

COCc1ccccc1NCc1ccc([C@H]2[C@@H](O)CCCc3cncn32)c(-c2ccccc2Cl)c1: 281
NS(=O)(=O)OC[C@@H]1C[C@@H](n2ccc3c(N[C@H]4CCc5ccccc54)ncnc32)C[C@@H]1O: 874

----------
Test system: panel of cancer cell lines
Assay: Cell viability (CellTiter-Glo) dose-response across cancer cell line panel;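 note: after 72 h compound incubation with CellTiter-Glo ATP readout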
Type: cell-based, human
Details: Homo sapiens, KHM-1B
measurement_name: EC50 (nM)

CC(C)C[C@H](NC(=O)[C@H](Cc1ccccc1)NC(=O)c1cnccn1)B(O)O: 4.04
